Numbers sourced from ChEMBL document CHEMBL3988442.

molecular target: Protein translocase subunit SecA (Escherichia coli (strain K12)); assay: Assay to Identify E. coli SecA ATPase Inhibitors; assay type: functional; design: scale not given: direction of the effect not stated beside the values; conditions: 30 µM
Potency and affinity values are given separately.
quantity measured: Percent Effect (%)

CN(Cc1ncc[nH]1)CC(c1cccs1)N1CCOCC1 (centres undefined); -0.354
Fc1ccc(OCCCN2CCOC(Cn3cncn3)C2)cc1 (centres undefined); -1.31
CCOCCn1nnc(C2(NC(=O)c3ccccc3)CCCC2)n1; -7.55
O=C(Cn1nc(-c2ccc(F)cc2)oc1=O)Nc1ccccc1; 0.224
CC(C)N1CCOCC2(CN(Cc3ccco3)CCO2)C1 (centres undefined); -0.00842
CC(C)c1ncncc1C(=O)N1CCCN(Cc2cccs2)CC1; -1.81
CC(C)NC(=O)NCCCc1cc(N)n(-c2ccccc2)n1; -2.64
CCC1=N[C@@]2(CC[C@@H]3CN(S(=O)(=O)CC(C)C)C[C@@H]32)C(=O)N1C; -0.279
Cc1c(NC(=O)NCC(C)N2CCOCC2)cccc1OC(F)F (centres undefined); -4.46
Cc1ccc(CC2CCCN2CC(=O)NCc2ccccn2)cc1 (centres undefined); -7.47
COC(=O)c1cc(OCC2CCC2)cc(C(=O)N[C@@H]2CNCC[C@H]2O)c1; -7.97
O=C(c1ccc(F)cc1)N1CCN2C[C@H](OCc3ccccn3)C[C@H]2C1; -5.08
CN(C(=O)C1CCCCC1)[C@@H]1CCC[C@@H](N2CCOCC2)[C@@H]1O; -3.72
Cc1cc(C)n(C2CN(CC(=O)NC3CCOCC3)C2)n1; -6.74
CN(CC1(O)CCCN(CCC2CCCCC2)C1=O)C1CCOCC1 (centres undefined); -5.39
CN(C)C(=O)c1ccc2c(c1)N(C)C(CC(=O)NCCC(C)(C)C)CO2 (centres undefined); -3.89
CCN1CCN(c2nc(C(C)C)nc3c(C)nn(CC)c23)CC1; -8.3
Cc1ccc2nc(C3CCN(CCO)CC3)nn2c1; 1.65
Cc1cnn(CC2CCCN2C(=O)c2ccc3cc[nH]c3c2)c1 (centres undefined); -1.42
Cc1occc1C(=O)N1CCC[C@]2(C[C@@H](OCc3ccncc3)CO2)C1; 0.103
Cc1nn(C)c(Cl)c1C1CCCN1CCc1ccccn1 (centres undefined); 3.64
COc1cccc(CCC(=O)N2CCCCC2Cn2cccn2)c1 (centres undefined); -4.9
O=C(O)[C@]12CCCN(Cc3ccccc3)C[C@H]1CN(c1ncccn1)C2; -4.2
O=c1nc(CNc2ccccc2)[nH]n1Cc1ccccc1; -3.5
